Record form. Attribute: leak point pressure after drug administration. Fill in for each entry.
- System: urethane-anesthetized female rats
- measurement_protocol: Leak point pressure by direct compressing of the bladder (Example 4)
- Assay type: in vivo, rat
- test_conditions: 0.03 mg/kg, i.v.; 20 min later; mean ± SEM
Give just the number in cmH2O; leave the unit off.

Note to self: leak point pressure after drug administration recorded for Clc1cccc(N2CCNCC2)c1 was 73.8

Note to self: leak point pressure after drug administration recorded for O=C1Nc2cc(Cl)c(Cl)cc2N2CCNCC12 (centres unmarked) was 62.0

Note to self: leak point pressure after drug administration recorded for COc1cc(CC(C)N)c(OC)cc1I (centres unmarked) was 71.1

Note to self: leak point pressure after drug administration recorded for CNCC[C@H](Oc1cccc2ccccc12)c1cccs1 was 67.8

Note to self: leak point pressure after drug administration recorded for c1cc2c3c(c1)[C@H]1CCC[C@H]1N3CCNC2 was 73.3

###

- Test system: urethane-anesthetized female rats
- measurement_protocol: Leak point pressure by abdominal wall-electrically stimulating method, serotonin 5-HT receptor agonists (Example 3)
- Assay type: in vivo, rat
- test_conditions: 0.03 mg/kg, i.v.; mean ± SEM
- Text: SD female rats (body weight 180-350 g) were anesthetized with urethane (Wako Pure Chemical Industries, Ltd.), and the spinal cord was transected at T8-9 level to eliminate the reflex voiding. […] The bladder catheter was connected to a pressure transducer, and the signals of the transducer were sent to a computer via an amplifier (blood pressure amplification unit AP-641G; NIHON KOHDEN) and an analog-to-digital converter (BIOPAC; MP100), and recorded on a hard disc. […]
value_type: leak point pressure increase (cmH2O)
Give just the number in cmH2O; leave the unit off.

Note to self: leak point pressure increase recorded for c1cc2c3c(c1)[C@H]1CCC[C@H]1N3CCNC2 was 3.5

Note to self: leak point pressure increase recorded for COc1cc(CC(C)N)c(OC)cc1I (stereo not shown) was 5.9

Note to self: leak point pressure increase recorded for O=C1Nc2cc(Cl)c(Cl)cc2N2CCNCC12 (stereo not shown) was 9.7

Note to self: leak point pressure increase recorded for Clc1cccc(N2CCNCC2)c1 was 14.6

###

- Test system: urethane-anesthetized female rats
- measurement_protocol: Leak point pressure by direct compressing of the bladder (Example 4)
- Assay type: in vivo, rat
- test_conditions: 0.1 mg/kg, i.v.; 20 min later; mean ± SEM
Record form. Attribute: leak point pressure after drug administration. Fill in for each entry.
Give just the number in cmH2O; leave the unit off.

Note to self: leak point pressure after drug administration recorded for c1cc2c3c(c1)[C@H]1CCC[C@H]1N3CCNC2 was 76.0

Note to self: leak point pressure after drug administration recorded for CNCC[C@H](Oc1cccc2ccccc12)c1cccs1 was 72.6

Note to self: leak point pressure after drug administration recorded for COc1cc(CC(C)N)c(OC)cc1I (centres unmarked) was 79.5

Note to self: leak point pressure after drug administration recorded for O=C1Nc2cc(Cl)c(Cl)cc2N2CCNCC12 (centres unmarked) was 66.1

Note to self: leak point pressure after drug administration recorded for Clc1cccc(N2CCNCC2)c1 was 76.7

###

- Test system: urethane-anesthetized female rats
- measurement_protocol: Leak point pressure by abdominal wall-electrically stimulating method, serotonin 5-HT receptor agonists (Example 3)
- Assay type: in vivo, rat
- test_conditions: 0.3 mg/kg, i.v.; mean ± SEM
value_type: leak point pressure increase (cmH2O)
Give just the number in cmH2O; leave the unit off.

Note to self: leak point pressure increase recorded for COc1cc(CC(C)N)c(OC)cc1I (stereo not shown) [DOI] was 27.2

Note to self: leak point pressure increase recorded for c1cc2c3c(c1)[C@H]1CCC[C@H]1N3CCNC2 [WAY-163909] was 14.4

Note to self: leak point pressure increase recorded for O=C1Nc2cc(Cl)c(Cl)cc2N2CCNCC12 (stereo not shown) [WAY-161503] was 19.6

Note to self: leak point pressure increase recorded for CCCN(CCC)C1CCc2cccc(O)c2C1 (stereo not shown) [8OH-DPAT] was −1.5

###

- Tested on: urethane-anesthetized female rats
- measurement_protocol: Leak point pressure by abdominal wall-electrically stimulating method, serotonin 5-HT receptor agonists (Example 3)
- Assay type: in vivo, rat
- test_conditions: 3 mg/kg, i.v.; mean ± SEM
value_type: leak point pressure after drug administration (cmH2O)
Give just the number in cmH2O; leave the unit off.

Note to self: leak point pressure after drug administration recorded for c1cc2c(c(N3CCNCC3)c1)OCCO2 was 63.2

Note to self: leak point pressure after drug administration recorded for c1cc2c3c(c1)[C@@H]1CCC[C@@H]1N3CCNC2 was 47.4

Note to self: leak point pressure after drug administration recorded for CC(N)Cc1c[nH]c2ccc(OCc3cccs3)cc12 (stereo not shown) was 48.9

Note to self: leak point pressure after drug administration recorded for CNS(=O)(=O)Cc1ccc2[nH]cc(CCN(C)C)c2c1 was 54.4
